Reference for the values: PubChem BioAssay (Tox21)

Biological target: Estrogen receptor (Homo sapiens)
Assay: qHTS assay to identify small molecule agonists of the estrogen receptor alpha (ER-alpha) signaling pathway (AID 743075);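 also: HEK293 GripTite cells with ER-alpha and UAS-driven beta-lactamase reporter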
Details: HEK293 ER-alpha-UAS-bla, beta-lactamase FRET ratio, 18 h; series mostly up to 70.1 µM
Results filed as inconclusive are left out. The source made the active and inactive calls. Calls follow the shape of the full dose curve.
Outcome (select one): yes (active), no (inactive)

• C1=C\CC/C=C\CC/1 = no
• CC(C)(C)NCCO = no
• CC1=NN(c2ccc(S(=O)(=O)O)cc2)C(=O)C1N=Nc1ccccc1 (stereo unspecified) = no

Hi team, can someone confirm the assay call for `N#CCCOCCOCCC#N` ?
no

Okay, and `CCCO` ?
no

Okay, and `O=C(O)c1ccccc1C(=O)OCc1ccccc1` ?
no

Okay, and `CCCCCC(=O)OCC` ?
no

Okay, and CCCCC(CC)COC(=O)c1ccccc1 (stereo unspecified) ?
no

Okay, and `CCC(CO)CO` ?
no

Okay, and CC(C)CCCC(C)CC=O (stereo unspecified) ?
no
